Sourced from patent US9629918B2

Test system: IGROV cells
Experiment: In vitro cytotoxicity assay ([^3H]-thymidine incorporation) in IGROV cells
Assay type: cell-based, human
Could you please report measured IC50 for the items listed next?

# IC50 lookup, item CCCC(=O)OCN(C(=O)[C@@H](NC(=O)[C@H]1CCCCN1C)C(C)CC)[C@H](C[C@@H](OC(C)=O)c1nc(C(=O)N[C@@H](Cc2ccc(O)cc2)C[C@H](C)C(=O)NNC(=O)OCCSSC[C@H](NC(=O)[C@H](CC(=O)O)NC(=O)[C@H](CC(=O)O)NC(=O)[C@H](CCCNC(=N)N)NC(=O)[C@H](CC(=O)O)NC(=O)CC[C@H](NC(=O)c2ccc(N(C)CC3CNc4nc(N)[nH]c(=O)c4N3C)cc2)C(=O)O)C(=O)O)cs1)C(C)C (some centres unmarked) [DMTHF-EC-119-TubH, DMTHF-EC-119-tubulysin B hydrazide] ~120 µM

What value of IC50 has been recorded for this entry: CCC1(O)CC2CN(CCc3c([nH]c4ccccc34)[C@](C(=O)OC)(c3cc4c(cc3OC)N(C)[C@@H]3[C@](O)(C(=O)NNC(=O)OCCSSC[C@H](NC(=O)[C@H](CC(=O)O)NC(=O)[C@H](CC(=O)O)NC(=O)[C@H](CCCNC(=N)N)NC(=O)[C@H](CC(=O)O)NC(=O)CC[C@H](NC(=O)c5ccc(N(C)CC6CNc7nc(N)[nH]c(=O)c7N6C)cc5)C(=O)O)C(=O)O)[C@@H](O)[C@@]5(CC)C=CCN6CC[C@@]43[C@H]65)C2)C1 (some centres unmarked) ~1 µM
